system: Hepatitis C virus; experiment: Antiviral activity against HCV genotype 1a infected in human HuH7 cells after 3 days by luciferase reporter assay; format: functional, cell-based, Hepacivirus hominis, subtype 1a; details: Hepatitis C virus, subtype 1a, Huh-7, 72 h; read-out: EC50
measured.quantity: pEC50
# reply with the number alone; pEC50 is -log10 of concentration in mol/L

Examples with answers:
[[record]]
chem_smiles = "CNC(=O)c1c(-c2ccc(F)cc2)oc2ccc(-c3cccc(C(=O)NC(C)(C)C)c3)cc12"
measured_quantity = "pEC50"
endpoint_value = 6.62

[[record]]
chem_smiles = "CNC(=O)c1c(-c2ccc(F)cc2)oc2ccc(-c3cccc(C(=O)N(C)C(C)(C)C)c3)cc12"
measured_quantity = "pEC50"
endpoint_value = 5.85

[[record]]
chem_smiles = "CNC(=O)c1c(-c2ccc(F)cc2)oc2ccc(-c3cc(C(=O)NC4(c5ccccc5)CC4)ccc3C)cc12"
measured_quantity = "pEC50"
endpoint_value = 8.68

[[record]]
chem_smiles = "CNC(=O)c1c(-c2ccc(F)cc2)oc2ccc(-c3cc(C(=O)NC4(c5ccncn5)CC4)ccc3C)cc12"
measured_quantity = "pEC50"
endpoint_value = 7.89

[[record]]
chem_smiles = "CNC(=O)c1c(-c2ccc(F)cc2)oc2ccc(-c3cc(C(=O)NC4(c5ccncc5)CC4)ccc3C)cc12"
measured_quantity = "pEC50"
endpoint_value = 8.08


Attention now shifts to the item below.
Notebook: CNC(=O)c1c(-c2ccc(F)cc2)oc2ccc(-c3cc(C(=O)NC4(c5ncccn5)CC4)ccc3C)cc12 , pEC50 read as 8.64

----------
experiment: Volume of distribution at steady state in Sprague-Dawley rat at 2 mg/kg, iv by LC/MS/MS analysis; format: ADME, organism-based; details: Sprague-Dawley, in vivo, read-out: Vdss
measured.quantity: Vd (L/kg)
Output spec: scalar in L/kg, unitless text.

Value of measured Vd for the entry CNC(=O)c1c(-c2ccc(F)cc2)oc2ccc(-c3cc(C(=O)NC4(c5ncccn5)CC4)ccc3C)c(F)c12 [BMS-929075] : 0.7

----------
system: Hepatitis C virus; test: Antiviral activity against HCV genotype 1b infected in human HuH7 cells after 3 days by luciferase reporter assay; type: functional, cell-based, Hepacivirus hominis; conditions: Hepatitis C virus, genotype 1b, Huh-7, 72 h; read-out: EC50
Listed molecules paired with reported log10 of EC50
Kindly note that the scale is log10 and the underlying EC50 is in nM.

Below, 5 molecules whose answers are already recorded.
[[record]]
chem_smiles = "CNC(=O)c1c(-c2ccc(F)cc2)oc2ccc(-c3cc(C(=O)NC4(c5ccccc5)CC4)ccc3F)cc12"
endpoint_value = 0.56

[[record]]
chem_smiles = "CNC(=O)c1c(-c2ccc(F)cc2)oc2ccc(-c3cc(C(=O)NC4(c5ccncc5)CC4)ccc3C)cc12"
endpoint_value = -0.08

[[record]]
chem_smiles = "CNC(=O)c1c(-c2ccc(F)cc2)oc2ccc(-c3cc(C(=O)NC4(c5ncccn5)CC4)ccc3C)cc12"
endpoint_value = 0.00

[[record]]
chem_smiles = "CNC(=O)c1c(-c2ccc(F)cc2)oc2ccc(-c3cccc(C(=O)O)c3)cc12"
endpoint_value = 4.08

[[record]]
chem_smiles = "CNC(=O)c1c(-c2ccc(F)cc2)oc2ccc(-c3cc(C(=O)NC4(c5ccccc5)CC4)ccc3Cl)cc12"
endpoint_value = 0.40


Entry CNC(=O)c1c(-c2ccc(F)cc2)oc2ccc(-c3cccc(C(=O)NC(C)(C)C)c3)cc12 , tested on Hepatitis C virus, has a reported log10 of EC50 of 1.26

Entry CNC(=O)c1c(-c2ccc(F)cc2)oc2ccc(-c3ccc(C(=O)NC(C)(C)C)cc3)cc12 , Hepatitis C virus data, log10 of EC50 value: 2.99

Value (log10 of EC50, Hepatitis C virus) for record CNC(=O)c1c(-c2ccc(F)cc2)oc2ccc(-c3cc(C(=O)NC4(c5ncccn5)CC4)ccc3C)c(F)c12 = 0.60

Query CNC(=O)c1c(-c2ccc(F)cc2)oc2ccc(-c3cccc(C(=O)NC(C)C)c3)cc12 on Hepatitis C virus; log10 of EC50 returned: 1.99

Sample CNC(=O)c1c(-c2ccc(F)cc2)oc2ccc(-c3cc(C(=O)NC4(c5cnccn5)CC4)ccc3C)cc12 , system: Hepatitis C virus. Its log10 of EC50 is 0.41

Measured on Hepatitis C virus, CNC(=O)c1c(-c2ccc(F)cc2)oc2ccc(-c3cc(C(=O)NC4(c5ccccc5)CC4)ccc3OC)cc12 has a documented log10 of EC50 of 0.26

Summary line: CNC(=O)c1c(-c2ccc(F)cc2)oc2ccc(-c3cccc(C(=O)NCc4ccccc4)c3)cc12 , Hepatitis C virus, reported log10 of EC50 = 1.83

Tested on Hepatitis C virus: CNC(=O)c1c(-c2ccc(F)cc2)oc2ccc(-c3cccc(C(=O)N(C)C(C)(C)C)c3)cc12 . Observed log10 of EC50: 1.88
